src = the kinase profiling compilation of Christmann-Franck et al. (2016)

Overview of recorded kinase still bound, per cent of control for various molecules
- assay target: PDGFRB (human) (UniProt P09619)
- Sequence (P09619 whole entry, looked up): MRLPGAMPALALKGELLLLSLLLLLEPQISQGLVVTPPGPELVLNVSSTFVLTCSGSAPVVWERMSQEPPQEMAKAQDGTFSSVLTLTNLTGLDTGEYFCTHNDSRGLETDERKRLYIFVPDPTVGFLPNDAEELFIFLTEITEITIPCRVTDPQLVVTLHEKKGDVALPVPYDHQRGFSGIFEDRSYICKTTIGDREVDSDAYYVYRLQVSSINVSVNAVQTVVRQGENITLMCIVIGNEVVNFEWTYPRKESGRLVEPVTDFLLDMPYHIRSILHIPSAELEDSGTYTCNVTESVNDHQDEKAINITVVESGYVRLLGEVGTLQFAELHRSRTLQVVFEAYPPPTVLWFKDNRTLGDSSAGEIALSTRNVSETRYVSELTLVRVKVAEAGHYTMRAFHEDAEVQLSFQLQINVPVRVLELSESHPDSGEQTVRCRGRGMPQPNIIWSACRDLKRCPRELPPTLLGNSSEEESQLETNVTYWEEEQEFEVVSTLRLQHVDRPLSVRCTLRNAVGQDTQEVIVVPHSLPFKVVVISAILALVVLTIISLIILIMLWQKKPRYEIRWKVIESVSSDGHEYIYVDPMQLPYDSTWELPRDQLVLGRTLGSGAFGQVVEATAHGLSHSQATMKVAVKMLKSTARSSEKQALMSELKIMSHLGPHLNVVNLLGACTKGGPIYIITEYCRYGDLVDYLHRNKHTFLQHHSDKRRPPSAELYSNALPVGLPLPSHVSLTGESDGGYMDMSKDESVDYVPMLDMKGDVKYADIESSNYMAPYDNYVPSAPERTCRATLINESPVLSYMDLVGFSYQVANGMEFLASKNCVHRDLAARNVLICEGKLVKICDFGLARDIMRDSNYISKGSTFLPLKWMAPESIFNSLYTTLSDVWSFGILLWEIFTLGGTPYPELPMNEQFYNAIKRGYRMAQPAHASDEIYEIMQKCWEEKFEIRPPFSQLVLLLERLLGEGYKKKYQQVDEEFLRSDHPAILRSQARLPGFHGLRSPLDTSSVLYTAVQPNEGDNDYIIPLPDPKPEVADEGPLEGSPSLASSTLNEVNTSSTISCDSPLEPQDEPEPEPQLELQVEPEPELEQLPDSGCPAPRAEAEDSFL
- experiment summary: KINOMEscan competition binding
- protocol conditions: compound 10.0 µM
test readout: kinase still bound, per cent of control (%)

{"columns": ["query smiles", "unit symbol", "observed result"],
 "data": [
  ["CS(=O)(=O)Nc1ccc(-c2cncc(/C=C3\\SC(=N)NC3=O)c2)cc1", "%", 7.2],
  ["O=C1NC(=O)/C(=C/c2c[nH]c(=O)c(-c3ccc(N4CCNCC4)nc3)c2)S1", "%", 67],
  ["COc1cc(N2CCC(O)CC2)ccc1Nc1ncc2c(n1)N1CCc3cccc(c31)C(=O)N2C", "%", 87],
  ["CN1CCN(c2ccc(C(=O)Nc3ncc4c(n3)N(C)c3ccccc3C(=O)N4C)cc2)CC1", "%", 80],
  ["CCN1C(=O)CCN(C2CCCC2)c2nc(Nc3ccc(N4CCC(O)CC4)cn3)ncc21", "%", 11],
  ["COc1cc(N2CCN(C)CC2)ccc1Nc1ncc2c(n1)N(C)c1ccccc1N(C)C2=O", "%", 98]
]}

---

- assay target: PAK4 (human) (UniProt O96013)
- Sequence (O96013 whole entry, looked up): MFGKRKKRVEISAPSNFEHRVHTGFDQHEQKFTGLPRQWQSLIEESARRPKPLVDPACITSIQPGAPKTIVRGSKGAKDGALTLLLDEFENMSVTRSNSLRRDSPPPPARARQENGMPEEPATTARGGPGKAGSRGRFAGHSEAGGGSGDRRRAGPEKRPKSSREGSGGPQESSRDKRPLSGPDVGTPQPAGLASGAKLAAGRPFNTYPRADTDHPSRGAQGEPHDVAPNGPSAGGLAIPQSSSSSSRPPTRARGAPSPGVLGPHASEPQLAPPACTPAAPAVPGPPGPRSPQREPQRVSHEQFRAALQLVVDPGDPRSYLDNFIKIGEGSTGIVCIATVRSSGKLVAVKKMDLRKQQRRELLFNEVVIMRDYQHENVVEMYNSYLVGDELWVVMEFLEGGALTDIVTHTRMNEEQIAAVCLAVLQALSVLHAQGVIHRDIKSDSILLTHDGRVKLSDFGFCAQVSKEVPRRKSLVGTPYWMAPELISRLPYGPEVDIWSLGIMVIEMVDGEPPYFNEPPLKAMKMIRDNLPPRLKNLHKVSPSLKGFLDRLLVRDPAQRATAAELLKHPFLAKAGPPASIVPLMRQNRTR
- experiment summary: KINOMEscan competition binding
- protocol conditions: compound 10.0 µM

{"columns": ["query smiles", "assay target", "kinase still bound, per cent of control [%]"],
 "data": [
  ["COc1cc(N2CCC(O)CC2)ccc1Nc1ncc2c(n1)N1CCc3cccc(c31)C(=O)N2C", "PAK4 (human) (UniProt O96013)", 90],
  ["Cc1cn(-c2cc(NC(=O)c3cccc4cc(-c5ccc(/C=C6\\SC(=N)NC6=O)o5)ccc34)cc(C(F)(F)F)c2)cn1", "PAK4 (human) (UniProt O96013)", 29],
  ["CN1C(=O)c2ccccc2N(C)c2nc(NS(=O)(=O)c3ccc(N)cc3)ncc21", "PAK4 (human) (UniProt O96013)", 100],
  ["COc1cc(N2CCN(C)CC2)ccc1Nc1ncc2c(n1)N(C)c1ccccc1N(C)C2=O", "PAK4 (human) (UniProt O96013)", 100],
  ["O=C1NC(=O)/C(=C/c2c[nH]c(=O)c(-c3ccc(N4CCNCC4)nc3)c2)S1", "PAK4 (human) (UniProt O96013)", 98],
  ["N=C1NC(=O)/C(=C/c2ccc(-c3cncc4ccccc34)o2)S1", "PAK4 (human) (UniProt O96013)", 18]
]}

---

- assay target: BMPR1B (human) (UniProt O00238)
- Sequence (O00238 whole entry, looked up): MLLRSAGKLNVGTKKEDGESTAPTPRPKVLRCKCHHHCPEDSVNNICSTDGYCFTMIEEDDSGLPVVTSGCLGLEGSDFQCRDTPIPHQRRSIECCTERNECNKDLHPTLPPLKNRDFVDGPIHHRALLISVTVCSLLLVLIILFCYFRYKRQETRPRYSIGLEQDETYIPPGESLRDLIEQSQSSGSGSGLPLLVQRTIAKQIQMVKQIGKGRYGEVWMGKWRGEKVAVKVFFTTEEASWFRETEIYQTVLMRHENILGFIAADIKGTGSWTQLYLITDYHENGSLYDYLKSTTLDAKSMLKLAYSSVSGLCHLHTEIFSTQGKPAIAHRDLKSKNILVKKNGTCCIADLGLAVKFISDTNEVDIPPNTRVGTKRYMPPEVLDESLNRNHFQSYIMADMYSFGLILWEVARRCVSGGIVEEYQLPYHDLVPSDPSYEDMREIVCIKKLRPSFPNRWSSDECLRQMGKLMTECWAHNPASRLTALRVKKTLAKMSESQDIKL
- experiment summary: KINOMEscan competition binding
- protocol conditions: compound 10.0 µM
Field 'label' (enum: TRUE / FALSE). Set to TRUE when kinase still bound, per cent of control is strictly under 30%; else FALSE.

{"columns": ["query smiles", "assay target", "category label"],
 "data": [
  ["N=C1NC(=O)/C(=C/c2c[nH]c(=O)c(-c3ccc(N4CCNCC4)nc3)c2)S1", "BMPR1B (human) (UniProt O00238)", "TRUE"],
  ["CSC1=NC(=O)/C(=C/c2c[nH]c(=O)c(-c3ccc(NS(C)(=O)=O)cc3)c2)S1", "BMPR1B (human) (UniProt O00238)", "TRUE"],
  ["NS(=O)(=O)c1ccc(-c2ccc(/C=C3\\SC(=S)N(CC(=O)O)C3=O)o2)cc1", "BMPR1B (human) (UniProt O00238)", "TRUE"],
  ["O=C1NC(=O)/C(=C/c2c[nH]c(=O)c(-c3ccc(N4CCNCC4)nc3)c2)S1", "BMPR1B (human) (UniProt O00238)", "TRUE"],
  ["CS(=O)(=O)Nc1ccc(-c2cncc(/C=C3\\SC(=N)NC3=O)c2)cc1", "BMPR1B (human) (UniProt O00238)", "TRUE"],
  ["COc1cc(N2CCN(C)CC2)ccc1Nc1ncc2c(n1)N(C)c1sccc1C(=O)N2C", "BMPR1B (human) (UniProt O00238)", "FALSE"],
  ["CN1C(=O)c2ccccc2N(C)c2nc(NS(=O)(=O)c3ccc(N)cc3)ncc21", "BMPR1B (human) (UniProt O00238)", "FALSE"],
  ["Nc1cccc(-c2cc(/C=C3\\SC(=O)NC3=O)c[nH]c2=O)c1", "BMPR1B (human) (UniProt O00238)", "TRUE"],
  ["CS(=O)(=O)Nc1ccc(-c2cc(/C=C3\\SC(=N)NC3=O)c[nH]c2=O)cc1", "BMPR1B (human) (UniProt O00238)", "TRUE"],
  ["N=C1NC(=O)/C(=C/c2ccc(-c3ccc(F)cc3O)o2)S1", "BMPR1B (human) (UniProt O00238)", "TRUE"],
  ["COc1cc(N2CCC(O)CC2)ccc1Nc1ncc2c(n1)N1CCc3cccc(c31)C(=O)N2C", "BMPR1B (human) (UniProt O00238)", "FALSE"],
  ["N=C1NC(=O)/C(=C/c2c[nH]c(=O)c(-c3ccc4cc[nH]c4c3)c2)S1", "BMPR1B (human) (UniProt O00238)", "TRUE"]
]}

---

- assay target: UniProtKB Q00536
- Sequence (Q00536 whole entry, looked up): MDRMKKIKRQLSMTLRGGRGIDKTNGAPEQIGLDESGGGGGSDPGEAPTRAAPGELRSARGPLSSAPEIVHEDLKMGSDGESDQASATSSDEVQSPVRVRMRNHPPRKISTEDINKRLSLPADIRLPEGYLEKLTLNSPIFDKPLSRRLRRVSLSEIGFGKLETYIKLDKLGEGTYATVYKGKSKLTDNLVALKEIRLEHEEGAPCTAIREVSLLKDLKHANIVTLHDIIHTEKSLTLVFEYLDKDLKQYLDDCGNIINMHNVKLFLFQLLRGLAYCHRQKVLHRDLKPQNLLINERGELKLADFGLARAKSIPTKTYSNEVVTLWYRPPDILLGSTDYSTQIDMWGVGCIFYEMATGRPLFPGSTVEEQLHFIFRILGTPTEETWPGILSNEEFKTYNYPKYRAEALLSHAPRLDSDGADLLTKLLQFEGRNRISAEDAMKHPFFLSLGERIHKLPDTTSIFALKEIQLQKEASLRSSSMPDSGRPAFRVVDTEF
- experiment summary: KINOMEscan competition binding
- protocol conditions: compound 10.0 µM
# Lookup of reported kinase still bound, per cent of control keyed by entry
test readout: kinase still bound, per cent of control (%)

{"columns": ["query smiles", "assay target", "test readout", "observed result"],
 "data": [
  ["N=C1NC(=O)/C(=C/c2ccc(-c3cncc4ccccc34)o2)S1", "UniProtKB Q00536", "kinase still bound, per cent of control", 9.8],
  ["CN1C(=O)c2ccccc2N(C)c2nc(Nc3ccc(N4CCC(O)CC4)cc3)ncc21", "UniProtKB Q00536", "kinase still bound, per cent of control", 100],
  ["CN1C(=O)c2ccccc2N(C)c2nc(NS(=O)(=O)c3ccc(N)cc3)ncc21", "UniProtKB Q00536", "kinase still bound, per cent of control", 100]
]}

---

- assay target: DAPK3 (human)
- experiment summary: KINOMEscan competition binding
- protocol conditions: compound 10.0 µM
Each entry below lists one item and its recorded kinase still bound, per cent of control value.
test readout: kinase still bound, per cent of control (%)

{"columns": ["molecule", "unit symbol", "observed result"],
 "data": [
  ["NS(=O)(=O)c1ccc(-c2ccc(/C=C3\\SC(=O)NC3=O)o2)cc1", "%", 11],
  ["O=C1NC(=O)/C(=C/c2c[nH]c(=O)c(-c3ccc(N4CCNCC4)nc3)c2)S1", "%", 1],
  ["CN1C(=O)c2ccccc2N(C)c2nc(Nc3ccc(N4CCC(O)CC4)cc3)ncc21", "%", 100],
  ["COc1cc(N2CCN(C)CC2)ccc1Nc1ncc2c(n1)N(C1CCCC1)C(C)CC(=O)N2 (stereo not given)", "%", 13],
  ["N=C1NC(=O)/C(=C/c2c[nH]c(=O)c(-c3ccc4cc[nH]c4c3)c2)S1", "%", 8.6],
  ["N=C1NC(=O)/C(=C/c2ccc(-c3ccccc3O)o2)S1", "%", 7.4],
  ["CS(=O)(=O)Nc1ccc(-c2cncc(/C=C3\\SC(=N)NC3=O)c2)cc1", "%", 25],
  ["CS(=O)(=O)Nc1ccc(-c2cc(/C=C3\\SC(=N)NC3=O)c[nH]c2=O)cc1", "%", 4.4],
  ["COc1cc(C(=O)NC2CCN(C)CC2)ccc1Nc1ncc2c(n1)N(C1CCCC1)CCC(=O)N2C", "%", 11],
  ["COc1cc(C(=O)NC2CCN(C)CC2)ccc1Nc1ncc2c(n1)N(C1CCCC1)CC(C)C(=O)N2C (stereo not given)", "%", 8.2],
  ["COc1cc(C(=O)NC2CCN(C)CC2)ccc1Nc1ncc2c(n1)N(C1CCC(O)CC1)CCC(=O)N2C (stereo not given)", "%", 9.9],
  ["N=C1NC(=O)/C(=C/c2ccc(-c3cccc4cc[nH]c34)o2)S1", "%", 16],
  ["N=C1NC(=O)/C(=C/c2ccc(-c3ccc(C(=O)Nc4ccc(N5CCNCC5)cc4)cc3O)o2)S1", "%", 15],
  ["O=C1NC(=O)/C(=C/c2ccc(-c3ccc(F)cc3O)o2)S1", "%", 25],
  ["N=C1NC(=O)/C(=C/c2c[nH]c(=O)c(-c3ccc(S(N)(=O)=O)cc3)c2)S1", "%", 9.4]
]}

---

- assay target: PAK1 (human) (UniProt Q13153)
- Sequence (Q13153 whole entry, looked up): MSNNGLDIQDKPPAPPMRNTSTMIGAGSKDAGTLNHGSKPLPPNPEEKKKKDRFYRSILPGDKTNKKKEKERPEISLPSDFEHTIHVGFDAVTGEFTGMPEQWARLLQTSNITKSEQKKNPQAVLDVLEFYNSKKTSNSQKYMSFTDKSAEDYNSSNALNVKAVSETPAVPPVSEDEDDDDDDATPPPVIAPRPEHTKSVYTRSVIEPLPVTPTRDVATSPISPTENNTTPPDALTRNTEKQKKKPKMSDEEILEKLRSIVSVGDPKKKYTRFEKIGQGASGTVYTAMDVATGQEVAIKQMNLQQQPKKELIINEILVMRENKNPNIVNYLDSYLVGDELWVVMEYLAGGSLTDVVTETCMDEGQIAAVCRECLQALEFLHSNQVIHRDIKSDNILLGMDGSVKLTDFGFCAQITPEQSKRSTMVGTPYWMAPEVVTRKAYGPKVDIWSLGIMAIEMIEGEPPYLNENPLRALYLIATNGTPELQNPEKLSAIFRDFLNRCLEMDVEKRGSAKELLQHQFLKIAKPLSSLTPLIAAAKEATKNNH
- experiment summary: KINOMEscan competition binding
- protocol conditions: compound 10.0 µM
# kinase still bound, per cent of control per record follows
test readout: kinase still bound, per cent of control (%)

{"columns": ["query smiles", "observed result"],
 "data": [
  ["CS(=O)(=O)Nc1ccc(-c2cncc(/C=C3\\SC(=N)NC3=O)c2)cc1", 9.4],
  ["O=C1NC(=O)/C(=C/c2c[nH]c(=O)c(-c3ccc(N4CCNCC4)nc3)c2)S1", 90],
  ["CN1C(=O)c2ccccc2N(C)c2nc(Nc3ccc(N4CCC(O)CC4)cc3)ncc21", 100],
  ["COc1cc(N2CCC(O)CC2)ccc1Nc1ncc2c(n1)N1CCc3cccc(c31)C(=O)N2C", 83],
  ["CN1CCN(c2ccc(C(=O)Nc3ncc4c(n3)N(C)c3ccccc3C(=O)N4C)cc2)CC1", 99],
  ["COc1cc(N2CCN(C)CC2)ccc1Nc1ncc2c(n1)N(C)c1ccccc1N(C)C2=O", 92],
  ["O=C1NC(=O)C(=Cc2ccc(-c3ccc([N+](=O)[O-])cc3)o2)C(=O)N1", 17],
  ["CN1C(=O)c2ccccc2N(C)c2nc(NS(=O)(=O)c3ccc(N)cc3)ncc21", 100],
  ["COc1cc(N2CCN(C)CC2)ccc1Nc1ncc2c(n1)Nc1ccccc1NC2=O", 82]
]}
